# Method description: soluble fraction after stress (log2 fold change); higher = more stays soluble; pooled small domains, quantitative proteomics;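 also: 20 min heating vs room temperature control held 20 min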
# Condition details: stress: 75 degC
Item-by-item account of soluble fraction (log2)
No unit in the answer, please; the number alone is enough.

Example entries and their recorded answers appear below.
item_sequence=HMRNEFEAHSDGTRIQLNDRSKATFSVYDVQGRLIHSFQDFSGSSFNIEPKNQLLIITRETAEGVSVKKLV property_name="soluble fraction (log2)" recorded_value=0.34
item_sequence=HMKRLPAQMGGGDGVLRVPGLNNFVYVTIADKTLPAFNNRVPPKKGLRIWVGYSPEEPNLFQVLSTRTD property_name="soluble fraction (log2)" recorded_value=-1.83
item_sequence=HMFRSTLEELKHQISGFLKANQSQEFTAQNLADGLRMTSIAEYKRVVNAMDALVRDGELTFDAGKYQYNPN property_name="soluble fraction (log2)" recorded_value=-0.234
item_sequence=HMIINFDAIKLTTELNKYKRHKAIPNTFFDGTYTILDVRELYNDLTPKAQKIADELIEHYNVDVK property_name="soluble fraction (log2)" recorded_value=-1.73

Next sequence, please.
Query :: Give me measured soluble fraction (log2), please, for this sequence: HMGKIILLFSDDDGVFDTALYRVRNYDGHRFAQSLGNAEMKWRHSEDEYFDFVLTSLREDGYDIEEIE
Result :: -1.18
